Each recorded value in this set is attributed to ChEMBL document CHEMBL1212705.

Test system: Plasmodium falciparum
Experiment: Antiplasmodial activity against Plasmodium falciparum 3D7 after 72 hrs by SYBR green assay
Assay type: functional, organism-based
Settings: 3D7, 72 h
Label T when EC50 < 400 nM; otherwise F.

Strictly below 400 nM in EC50? `N[C@H]1CC[C@H](Nc2nc(Nc3ccc(C(=O)N4CCCCC4)cc3)c3ncn(-c4cccc(C(=O)O)c4)c3n2)CC1`
F

Strictly below 400 nM in EC50? `O=C(c1ccc(Nc2nc(NCCc3c[nH]cn3)nc3c2ncn3-c2cccc(Cl)c2)cc1)N1CCCCC1`
T

Strictly below 400 nM in EC50? `N[C@H]1CC[C@H](Nc2nc(Nc3ccc(C(=O)N4CCCCC4)cc3)c3ncn(-c4ccc(C(=O)O)cc4)c3n2)CC1`
F

Strictly below 400 nM in EC50? `O=C(c1ccc(Nc2nc(N[C@H]3CC[C@H](O)CC3)nc3c2ncn3-c2cccc(F)c2)cc1)N1CCCCC1`
F

Strictly below 400 nM in EC50? `CN1CCN(C(=O)c2cccc(Nc3nc(N[C@H]4CC[C@H](N)CC4)nc4c3ncn4-c3ccccc3)c2)CC1`
F

Strictly below 400 nM in EC50? `N[C@H]1CC[C@H](Nc2nc(Nc3ccc(CN4CCOCC4)cc3)c3ncn(-c4ccccc4)c3n2)CC1`
T

Strictly below 400 nM in EC50? `C[C@@H]1CC[C@H]2[C@@H](C)C(=O)O[C@@H]3O[C@@]4(C)CC[C@@H]1[C@]32OO4`
T
